Consider the following compounds; for each one, report its IC50.
Target desc: NRAS WT (Homo sapiens (Human), UniProt P01111+P62937)
Sequence (P01111 whole entry): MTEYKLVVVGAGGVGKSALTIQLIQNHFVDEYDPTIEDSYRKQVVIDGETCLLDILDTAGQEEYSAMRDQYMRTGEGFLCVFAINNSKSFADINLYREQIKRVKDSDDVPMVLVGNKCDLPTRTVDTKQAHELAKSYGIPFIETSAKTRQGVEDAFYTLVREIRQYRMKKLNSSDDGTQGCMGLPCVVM
Sequence (P62937 whole entry): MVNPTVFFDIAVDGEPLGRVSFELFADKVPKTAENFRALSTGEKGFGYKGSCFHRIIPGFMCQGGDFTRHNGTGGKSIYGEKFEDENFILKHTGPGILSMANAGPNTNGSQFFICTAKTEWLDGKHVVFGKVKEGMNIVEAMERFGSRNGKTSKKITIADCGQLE
Measurement description: Ras-Raf (BRAF RBD) disruption / FRET / MOA assay, NRAS WT
Type: biochemical
Settings: read-out: IC50* NRAS WT FRET data

Asked: Returns the measured IC50 for the input compound. Input: CCn1c(-c2cccnc2[C@H](C)OC)c2c3cc(ccc31)-c1cccc(c1)C[C@H](NC(=O)[C@@H](COC1CN(C(=O)C#CC(C)(C)N(C)C3CC3)C1)C(C)C)C(=O)N1CCC[C@H](N1)C(=O)OCC(C)(C)C2 (atropisomer, axis not shown)
Given back: > 10 µM

Asked: Returns the measured IC50 for the input compound. Input: CCn1c(-c2cccnc2[C@H](C)OC)c2c3cc(ccc31)-c1cccc(c1)C[C@H](NC(=O)[C@H](C(C)C)N1CC[C@]3(CCN(C(=O)C#C[C@H]4COCCN4C)C3)C1=O)C(=O)N1CCC[C@H](N1)C(=O)OCC(C)(C)C2 (atropisomer, axis not shown)
Given back: > 10 µM

Asked: Returns the measured IC50 for the input compound. Input: CCn1c(-c2cccnc2[C@H](C)OC)c2c3cc(ccc31)-c1cccc(c1)C[C@H](NC(=O)[C@H](C(C)C)N1CC[C@]3(CCN(C(=O)C#C[C@H]4COCCN4C4COC4)C3)C1=O)C(=O)N1CCC[C@H](N1)C(=O)OCC(C)(C)C2 (atropisomer, axis not shown)
Given back: > 10 µM

Asked: Returns the measured IC50 for the input compound. Input: CO[C@@H](C)c1ncccc1-c1c2c3cc(ccc3n1CC(F)(F)F)-c1cccc(c1)C[C@H](NC(=O)[C@H](C(C)C)N(C)C(=O)[C@H]1CCN(C(=O)C#CC(C)(C)N(C)C)C1)C(=O)N1CCC[C@H](N1)C(=O)OCC(C)(C)C2 (atropisomer, axis not shown)
Given back: 1 to 10 µM

Asked: Returns the measured IC50 for the input compound. Input: C=CC(=O)N1CC[C@H](C(=O)N(C)[C@H](C(=O)N[C@H]2Cc3cccc(c3)-c3ccc4c(c3)c(c(-c3cnn(C5CCN(C)CC5)c3[C@H](C)OC)n4CC)CC(C)(C)COC(=O)[C@@H]3CCCN(N3)C2=O)C(C)C)C1
Given back: > 10 µM

Asked: Returns the measured IC50 for the input compound. Input: C=CC(=O)N1CC[C@@]2(CCN2C(=O)N(C)[C@H](C(=O)N[C@H]2Cc3nc(cs3)-c3ccc4c(c3)c(c(-c3cccnc3[C@H](C)OC)n4CC)CC(C)(C)COC(=O)[C@@H]3CCCN(N3)C2=O)C(C)C)C1 (atropisomer, axis not shown)
Given back: 0.1 to 1 µM

The measurements presented in this section are drawn from patent US11566007B2.
